Target: UniProt:P13945
Sequence (P13945 whole entry): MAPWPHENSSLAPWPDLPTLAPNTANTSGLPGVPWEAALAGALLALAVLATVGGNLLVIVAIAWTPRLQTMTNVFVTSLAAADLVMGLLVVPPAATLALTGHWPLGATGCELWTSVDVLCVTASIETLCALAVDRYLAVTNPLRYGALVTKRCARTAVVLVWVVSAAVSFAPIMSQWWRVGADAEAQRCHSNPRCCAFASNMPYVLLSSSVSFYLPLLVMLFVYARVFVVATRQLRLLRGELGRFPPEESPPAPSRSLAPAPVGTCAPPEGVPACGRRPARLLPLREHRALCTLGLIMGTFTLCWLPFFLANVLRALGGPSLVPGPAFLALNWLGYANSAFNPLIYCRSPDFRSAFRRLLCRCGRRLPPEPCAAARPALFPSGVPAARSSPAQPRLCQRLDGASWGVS
Recorded Metric: Ki

Problem: I have this compound here, CN(C)C(=O)COc1ccc2c(c1)C[C@@H](NC[C@H](O)c1ccc(O)c(CCO)c1)CC2 [KUR-1246] , and I need its recorded Ki.
Result: > 10 µM

The origin of these recorded values is BindingDB's records for PubMed 11303056.
